The reader will find reported EC50 values listed item by item below.
# Test system: H23, NSCLC tumor
# assay method text: Apoptosis induction against solid tumors in vitro, H23
# Format: cell-based
# assay setup: Table 7
# unit: µM | format: bare number

O=[N+]([O-])c1cccc(/C=N/Nc2ccccn2)c1O ... 8.2
Oc1c(Br)cc(Cl)cc1/C=N/Nc1ccc(C(F)(F)F)cn1 ... 5.6

# evaluate next
Form: compound = Oc1c(Cl)cc(Cl)cc1/C=N/Nc1ccc(C(F)(F)F)cn1 ; EC50 = 3.7

* * *

# System: HOP-62, NSCLC tumor
# assay method text: Apoptosis induction against solid tumors in vitro, HOP-62
# Assay type: cell-based
# assay setup: Table 21
reported endpoint: EC50

Form: compound = CN(C)CC[C@H](CSc1ccccc1)Nc1ccc(S(=O)(=O)NC(=O)c2ccc(N3CCN(Cc4ccccc4-c4ccc(Cl)cc4)CC3)cc2)cc1[N+](=O)[O-] [ABT-737, reference compound] ; EC50 = > 25 µM
